tgt: T1, human IL4 (human, UniProt P05112 25-153, biotinylated in the SPR and competition assays (sites not given))
T1 sequence: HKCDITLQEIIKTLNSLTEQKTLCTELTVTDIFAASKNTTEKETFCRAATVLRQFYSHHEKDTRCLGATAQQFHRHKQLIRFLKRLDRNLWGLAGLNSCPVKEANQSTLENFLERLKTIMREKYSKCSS
test protocol: cell-based or functional assay
readout kind: Type 1 Complex inhibition IC50 (pM)
// return numeric value only (unit: pM, not printed)

In: Tell me measured Type 1 Complex inhibition IC50 for C06_13A10 (designed binder, ankyrin repeat protein; His-tagged, IMAC-purified) DLGKKLLEAARAGQDDEVRILMANGADVNVSDRIGNTPLHLAAVYVHLEIVEVLLKNGADVNALDDDGLTPLHLAAADGHLEIVEVLLKHGADVNATDSHVWTPLHLAAFFGHLEIVEVLLKYGADVNAQDKFGKTAFDISIDNGNEDLAEILQKLN please.
Out: 6.6

Provenance of the data: patent US20120277143A1
